Known Kd of a selection of compounds
Biological target: UniProt:P35222
Sequence (P35222 whole entry): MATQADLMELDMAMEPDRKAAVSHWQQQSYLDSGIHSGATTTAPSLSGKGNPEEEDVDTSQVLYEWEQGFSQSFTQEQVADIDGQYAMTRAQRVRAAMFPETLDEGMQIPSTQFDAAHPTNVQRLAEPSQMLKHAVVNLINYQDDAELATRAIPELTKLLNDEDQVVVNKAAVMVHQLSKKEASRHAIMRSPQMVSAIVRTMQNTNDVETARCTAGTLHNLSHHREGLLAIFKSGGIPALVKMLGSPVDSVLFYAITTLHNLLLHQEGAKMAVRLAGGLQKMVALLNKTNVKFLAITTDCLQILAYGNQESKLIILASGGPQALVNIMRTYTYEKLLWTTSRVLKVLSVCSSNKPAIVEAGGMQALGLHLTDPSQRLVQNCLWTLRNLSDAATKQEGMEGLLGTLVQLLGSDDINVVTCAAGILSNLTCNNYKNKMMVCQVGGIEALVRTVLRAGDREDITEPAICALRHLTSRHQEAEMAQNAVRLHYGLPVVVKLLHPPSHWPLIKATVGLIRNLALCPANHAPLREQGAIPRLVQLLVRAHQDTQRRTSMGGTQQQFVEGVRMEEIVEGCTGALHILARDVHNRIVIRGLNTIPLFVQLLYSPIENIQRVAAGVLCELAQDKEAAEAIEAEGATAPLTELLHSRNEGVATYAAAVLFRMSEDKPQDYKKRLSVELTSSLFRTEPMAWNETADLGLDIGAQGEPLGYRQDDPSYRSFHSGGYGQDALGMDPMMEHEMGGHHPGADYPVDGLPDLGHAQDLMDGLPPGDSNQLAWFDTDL
Experiment: KD50 measurement using competitive fluorescence polarization (FP) with labelled TCF4
Format: binding
Conditions: fluorescence polarization, β-catenin; read-out: β-Cat FP KD
Where a SMILES comes first, the peptide text is derived from it.

- compound: "CC[C@@H]1NC(=O)[C@H]([C@@H](C)CC)NC(=O)[C@H](CC(C)C)NC(=O)[C@H](Cc2ccccc2)NC(=O)[C@H](Cc2c[nH]c3ccccc23)NC(=O)CCCCCNC(=O)C[C@@H](C(=O)O)NC(=O)[C@H](Cc2c[nH]c3ccccc23)NC(=O)[C@H](C)NC1=O [compound 246] (HELM PEPTIDE1{[O=C(CCCCCN[*:1])[*:2]].W.F.L.I.[Abu].A.W.D}$PEPTIDE1,PEPTIDE1,1:R1-9:R3$$$V2.0)"
  Kd: "< 0.4 µM"
- compound: "CC[C@H](C)[C@@H]1NC(=O)[C@H](CC(C)C)NC(=O)[C@H](Cc2ccccc2)NC(=O)[C@H](Cc2c[nH]c3ccccc23)NC(=O)[C@H](CCSC)NC(=O)CCCCCNC(=O)C[C@@H](C(=O)O)NC(=O)[C@H](Cc2c[nH]c3ccccc23)NC(=O)[C@H](C)NC(=O)[C@H](CS)NC1=O [compound 192] (HELM PEPTIDE1{[O=C(CCCCCN[*:1])[*:2]].M.W.F.L.I.C.A.W.D}$PEPTIDE1,PEPTIDE1,1:R1-10:R3$$$V2.0)"
  Kd: "< 0.4 µM"

Now for another entry.
*Q* Determine from records and report Kd for CSCC[C@H](NC(=O)[C@H](CCCNC(=N)N)NC(=O)[C@H](CO)NC(=O)[C@@H](N)CCSC)C(=O)N[C@@H](Cc1c[nH]c2ccccc12)C(=O)N[C@@H](Cc1ccccc1)C(=O)N[C@@H](CC(C)C)C(=O)N[C@@H](Cc1ccccc1)C(=O)N[C@@H](CO)C(=O)N[C@@H](Cc1ccccc1)C(=O)N[C@@H](Cc1c[nH]c2ccccc12)C(=O)NCC(=O)O [compound 63] (H-MSRMWFLFSFWG-OH)
*A* > 30 µM
